TARGET DESC: hNav1.4 (Homo sapiens, UniProt P35499)
Sequence (P35499 whole entry): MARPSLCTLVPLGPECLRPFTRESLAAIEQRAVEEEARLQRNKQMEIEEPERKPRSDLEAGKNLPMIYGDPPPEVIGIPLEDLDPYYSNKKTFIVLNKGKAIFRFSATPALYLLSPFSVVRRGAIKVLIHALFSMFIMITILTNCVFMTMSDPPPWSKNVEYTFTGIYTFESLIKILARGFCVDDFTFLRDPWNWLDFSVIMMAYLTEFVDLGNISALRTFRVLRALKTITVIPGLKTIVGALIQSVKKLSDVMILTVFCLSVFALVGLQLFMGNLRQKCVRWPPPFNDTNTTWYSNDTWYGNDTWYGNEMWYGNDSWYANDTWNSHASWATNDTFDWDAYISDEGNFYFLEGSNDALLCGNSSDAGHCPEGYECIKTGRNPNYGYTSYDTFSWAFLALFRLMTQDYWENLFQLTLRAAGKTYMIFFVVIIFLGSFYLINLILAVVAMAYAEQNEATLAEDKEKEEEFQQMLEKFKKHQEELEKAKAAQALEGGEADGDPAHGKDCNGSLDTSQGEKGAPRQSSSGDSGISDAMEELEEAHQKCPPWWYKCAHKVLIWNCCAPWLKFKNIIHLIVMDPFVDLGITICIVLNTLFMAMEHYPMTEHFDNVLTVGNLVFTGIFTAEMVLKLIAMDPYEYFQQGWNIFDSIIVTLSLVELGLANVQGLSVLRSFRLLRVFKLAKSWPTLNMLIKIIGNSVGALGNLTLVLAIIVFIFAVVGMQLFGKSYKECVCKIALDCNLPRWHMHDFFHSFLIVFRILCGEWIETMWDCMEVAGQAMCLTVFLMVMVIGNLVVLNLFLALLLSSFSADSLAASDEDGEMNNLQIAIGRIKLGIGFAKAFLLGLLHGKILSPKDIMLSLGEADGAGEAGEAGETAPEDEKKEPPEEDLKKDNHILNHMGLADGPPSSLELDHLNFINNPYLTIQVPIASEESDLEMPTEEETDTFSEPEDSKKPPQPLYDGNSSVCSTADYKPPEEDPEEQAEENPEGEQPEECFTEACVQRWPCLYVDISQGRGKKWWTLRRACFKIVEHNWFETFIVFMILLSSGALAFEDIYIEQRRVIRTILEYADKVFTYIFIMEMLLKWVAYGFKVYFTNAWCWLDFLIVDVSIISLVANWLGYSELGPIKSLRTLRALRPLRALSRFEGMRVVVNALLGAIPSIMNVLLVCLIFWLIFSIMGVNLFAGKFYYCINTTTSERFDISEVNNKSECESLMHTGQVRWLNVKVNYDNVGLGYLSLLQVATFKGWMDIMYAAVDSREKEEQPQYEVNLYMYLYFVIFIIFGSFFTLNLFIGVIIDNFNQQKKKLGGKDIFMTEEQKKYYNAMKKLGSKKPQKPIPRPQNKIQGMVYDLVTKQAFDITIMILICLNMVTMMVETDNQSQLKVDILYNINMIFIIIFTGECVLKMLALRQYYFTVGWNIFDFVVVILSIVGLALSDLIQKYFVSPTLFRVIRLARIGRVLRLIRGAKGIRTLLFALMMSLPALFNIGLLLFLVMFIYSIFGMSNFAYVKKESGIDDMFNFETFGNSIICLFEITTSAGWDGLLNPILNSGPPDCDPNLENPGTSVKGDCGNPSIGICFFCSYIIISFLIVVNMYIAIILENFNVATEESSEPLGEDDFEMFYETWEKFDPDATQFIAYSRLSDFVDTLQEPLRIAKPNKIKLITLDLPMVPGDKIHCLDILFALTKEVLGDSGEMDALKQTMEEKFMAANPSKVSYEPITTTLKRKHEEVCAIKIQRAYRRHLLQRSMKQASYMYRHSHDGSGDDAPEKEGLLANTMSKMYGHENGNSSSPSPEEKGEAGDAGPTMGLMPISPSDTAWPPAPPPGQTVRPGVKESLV
ASSAY OVERVIEW: whole-cell patch clamp, peak INa
APPLIED CONDITIONS: read-out: 0.1 Hz / IC50
MEASURED ATTRIBUTE: IC50 (µM)
# output: bare number, implied unit µM

Recall the reported IC50 of CNC[C@H](C)Oc1cccc2ccccc12 [(S)-22b] on hNav1.4 (Homo sapiens, UniProt P35499) and write it down. 51

====

TARGET DESC: hNav1.4 (Homo sapiens, UniProt P35499, F1586C)
Sequence (P35499 whole entry F1586C): as the sequence (P35499 whole entry) above, with F1586C counted along it
ASSAY OVERVIEW: whole-cell patch clamp, peak INa
APPLIED CONDITIONS: read-out: 0.1 Hz / IC50
MEASURED ATTRIBUTE: IC50 (µM)
State the answer as a number, implicitly in µM.

With hNav1.4 (Homo sapiens, UniProt P35499, F1586C) as the test system, provide measured IC50 for this compound: CNC[C@H](C)Oc1cccc2ccccc12 [(S)-22b] 215

Recorded values, source paper PMC4513211.
